The reported measurements were obtained from the supplement of paper PMC13380429.

tested on: U2OS; experiment: cell viability relative to DMSO; higher = less toxic; details: 72 h; 1000 nM
Overview of reported cell viability across a group of compounds:
MEASURED_PROPERTY: cell viability (%)

COMPOUND: COc1cccc(C=NCCN=Cc2cccc(OC)c2[O-])c1[O-].[Cl-].[Mn+3]
MEASURED_PROPERTY: cell viability
TEST_RESULT: 99.3

COMPOUND: O=C(O)/C=C/c1ccc(O)c(O)c1
MEASURED_PROPERTY: cell viability
TEST_RESULT: 100

COMPOUND: CCCCN1CCCC1CNC(=O)c1cc(C#N)c2ccccc2c1OC (centres undefined) [nafadotride]
MEASURED_PROPERTY: cell viability
TEST_RESULT: 101

COMPOUND: NC(=O)CN1CC[C@@H](NC(=O)[C@@H]2CCCN2)C1=O
MEASURED_PROPERTY: cell viability
TEST_RESULT: 105

COMPOUND: CC(=O)N[C@@H](CSC/C=C(\C)CC/C=C(\C)CCC=C(C)C)C(=O)O
MEASURED_PROPERTY: cell viability
TEST_RESULT: 99

COMPOUND: CC1(C)OC2(C)C(O)CC1CC2O (centres undefined)
MEASURED_PROPERTY: cell viability
TEST_RESULT: 97.7

COMPOUND: CC(C)C[C@H](NC(=O)[C@H](CCCCN)NC(=O)[C@H](CCCNC(=N)N)NC(=O)[C@H](C)NC(=O)[C@H](CO)NC(=O)[C@H](CCCCN)NC(=O)[C@H](CCCNC(=N)N)NC(=O)[C@H](C)NC(=O)CNC(=O)[C@@H](NC(=O)[C@H](Cc1ccccc1)NC(=O)CNC(=O)CNC(=O)[C@@H](N)Cc1ccccc1)[C@@H](C)O)C(=O)N[C@@H](C)C(=O)N[C@@H](CC(N)=O)C(=O)N[C@@H](CCC(N)=O)C(=O)O
MEASURED_PROPERTY: cell viability
TEST_RESULT: 97.5

COMPOUND: CCN(CC)C(=O)c1ccc(C2=CC3(CCNCC3)Oc3cccc(O)c32)cc1
MEASURED_PROPERTY: cell viability
TEST_RESULT: 103

COMPOUND: C[C@]12CCC(=O)C=C1CC[C@@H]1[C@@H]2[C@@H](O)C[C@@]2(C)[C@H]1CC[C@]2(O)C(=O)COP(=O)(O)O [hydrocortisone-phosphate]
MEASURED_PROPERTY: cell viability
TEST_RESULT: 100

COMPOUND: CCCCCCC(=O)OC1CC(C)(C)NC(C)(C)C1
MEASURED_PROPERTY: cell viability
TEST_RESULT: 99.6

COMPOUND: Cc1c(Cc2ccc3ccccc3n2)c2cc(F)ccc2n1CC(=O)O
MEASURED_PROPERTY: cell viability
TEST_RESULT: 97.9

COMPOUND: CC[C@@H](c1ccc(F)c(F)c1)n1c(C(=O)OC)c(-c2ccno2)[nH]c1=S
MEASURED_PROPERTY: cell viability
TEST_RESULT: 96

COMPOUND: CC[C@H]1OC(=O)[C@H](C)[C@@H](O[C@H]2C[C@@](C)(OC)[C@@H](O)[C@H](C)O2)[C@H](C)[C@@H](O[C@@H]2O[C@H](C)C[C@H](N(C)C)[C@H]2O)[C@](C)(O)C[C@@H](C)C(=O)[C@H](C)[C@@H](O)[C@]1(C)O
MEASURED_PROPERTY: cell viability
TEST_RESULT: 98

COMPOUND: OCCc1ccc(OCCn2ccnc2)cc1
MEASURED_PROPERTY: cell viability
TEST_RESULT: 96
